FYI, the data here is from patent US20030199671A1.

- test_target: T1, human IgG1 (human, UniProt P01857-1 1-330 = IgG part)
- T1 construct: Calbiochem; human plasma IgG1 in anisotropy studies, myeloma-derived (cat. 400120) in batch/column studies; also called hIgG1
- T1 sequence (P01857 other isoform, or with tags, fused parts or gaps): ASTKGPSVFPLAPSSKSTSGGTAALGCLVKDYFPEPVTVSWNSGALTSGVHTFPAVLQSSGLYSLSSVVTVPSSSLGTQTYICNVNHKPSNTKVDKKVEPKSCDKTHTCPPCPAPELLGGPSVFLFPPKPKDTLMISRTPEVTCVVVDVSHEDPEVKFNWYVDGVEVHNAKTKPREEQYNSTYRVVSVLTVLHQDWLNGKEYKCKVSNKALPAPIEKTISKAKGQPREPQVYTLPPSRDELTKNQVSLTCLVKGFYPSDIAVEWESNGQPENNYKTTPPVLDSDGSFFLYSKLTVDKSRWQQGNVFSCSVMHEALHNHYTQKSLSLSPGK
- test_details: fluorescence anisotropy; pH 7.4 PBS (second value, unlabelled row)
Positions of bridges follow the written chain, without caps; N, C: chain ends.
A collection of binders and their measured pKd
Friendly reminder that pKd comes from taking -log10 of the concentration in mol/L.

QUERY: # return recorded pKd for entry Ac-GDDHMCVYTTWGELIWCDNHEPGPEGGGK-NH2 (disulfide 6-17 (inferred), Synthetic disulfide-cyclised peptide) [DX249]
RESULT: 5.54

QUERY: # return recorded pKd for entry Ac-AGYYWCNYWGLCPDQGTPGPEGGGK-NH2 (not fully specified (bridges); printed as Ac-AGYYWCNYWGLCPDQGTPGPEGGGK-NH2; cysteine pairing not given here; also: fluorescein-labelled form in anisotropy assays, place not given here, Fluorescein-labelled in anisotropy assays; immobilised in batch assays) [DX254]
RESULT: 6.40

QUERY: # return recorded pKd for entry Ac-GDDDHCYWFREWFNSECPHGEPGPEGGGK-NH2 (not fully specified (bridges); printed as Ac-GDDDHCYWFREWFNSECPHGEPGPEGGGK-NH2; cysteine pairing not given here; also: fluorescein-labelled form in anisotropy assays, place not given here, Fluorescein-labelled in anisotropy assays; immobilised in batch/column assays) [DX252]
RESULT: 5.54
